test: BSK_SAg_Proliferation: Cell Proliferation Assessment in the BioMAP Diversity Plus: SAg Assay (AID 2283095); conditions: primary human HUVEC with PBMC;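 further: relative cell number as total protein by SRB absorbance in sub-confluent culture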
Calls of active or inactive are those of the source. How the source made its calls: active means hit-call score of the fitted dose curve at least 0.9, where 1 is the maximum; inactive means score below 0.9.
Please answer using one outcome listed in 1 (yes) = active, 0 (no) = inactive

[
  {
    "SMILES_TEXT": "CCCCNc1ccc(NCCCC)c2c1C(=O)c1ccccc1C2=O",
    "CAT": "0 (no)"
  }
]

# input Please state the recorded outcome for this compound: "CCO[Si](CCCN=C=O)(OCC)OCC"
# output 0 (no)

# input Please state the recorded outcome for this compound: "CCCCCCCCCCCCCCCC[N+](C)(C)CC"
# output 1 (yes)

# input Please state the recorded outcome for this compound: "CCCCC/C=C\C/C=C\CCCCCCCC(=O)OC"
# output 1 (yes)

* * *

experiment: BSK_3C_Vis: BioMAP Diversity Plus: 3C Assay for Morphology Visualization (AID 2283025); conditions: primary human endothelial cells (HUVEC);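 further: fitted both ways so gain or loss versus DMSO counts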
Activity calls are given as the source filed them. The calls were made as follows: active = hit-call score of the fitted dose curve at least 0.9, where 1 is the maximum; inactive = score below 0.9.
Please answer using one outcome listed in t (active), f (inactive)

[
  {
    "MOLECULE": "c1ccc(-c2ccccn2)nc1",
    "CAT": "f"
  },
  {
    "MOLECULE": "CC(C)C(=O)C(C)C",
    "CAT": "f"
  },
  {
    "MOLECULE": "CCCCNc1ccc(NCCCC)c2c1C(=O)c1ccccc1C2=O",
    "CAT": "f"
  },
  {
    "MOLECULE": "COCc1c(C(C)C)nc(C(C)C)c(/C=C/[C@@H](O)C[C@@H](O)CC(=O)O)c1-c1ccc(F)cc1",
    "CAT": "t"
  }
]

Here's the next entry for you.
# input Please state the recorded outcome for this molecule: C=CCOCC(O)CCl (stereo not given)
# output f

* * *

experiment: ATG_TA_CIS: Attagene CIS-FACTORIAL HepG2 Assay for human TA Basal Promoter (AID 2282964); details: HepG2 Attagene CIS-factorial TA basal promoter reporter; actives raise or lower the signal
Calls of active or inactive are those of the source. How the source made its calls: active means hit-call score of the fitted dose curve at least 0.9, where 1 is the maximum; inactive means score below 0.9.
Please answer using one outcome listed in yes (active), no (inactive)

[
  {
    "SMILES_TEXT": "CCOC(=O)Cc1cccc2ccccc12",
    "CAT": "no"
  },
  {
    "SMILES_TEXT": "Nc1ccc(N=Nc2ccccc2)c(N)n1",
    "CAT": "no"
  },
  {
    "SMILES_TEXT": "CC(C)(c1cc(Br)c(OCCO)c(Br)c1)c1cc(Br)c(OCCO)c(Br)c1",
    "CAT": "yes"
  },
  {
    "SMILES_TEXT": "Cc1cnc(NC(=O)C2=C(O)c3ccccc3S(=O)(=O)N2C)s1",
    "CAT": "no"
  },
  {
    "SMILES_TEXT": "CCCCCCCOC(=O)CCC",
    "CAT": "no"
  },
  {
    "SMILES_TEXT": "CCO[Si](C)(OCC)OCC",
    "CAT": "no"
  },
  {
    "SMILES_TEXT": "c1ccc(CNCc2ccccc2)cc1",
    "CAT": "no"
  },
  {
    "SMILES_TEXT": "CC1=CC[C@H](C(C)C)C=C1",
    "CAT": "no"
  },
  {
    "SMILES_TEXT": "O=C(O)C(c1ccc(Cl)cc1)c1ccc(Cl)cc1",
    "CAT": "no"
  },
  {
    "SMILES_TEXT": "O=C1CCCC1",
    "CAT": "no"
  }
]

# input Please state the recorded outcome for this compound: "CCc1ccc2c(c1)C(=O)c1ccccc1C2=O"
# output no

# input Please state the recorded outcome for this compound: "CCCCCCCCCCOS(=O)(=O)O"
# output no

meta.source: PubChem BioAssay (EPA / NIEHS)
